# key: entry, value: relative binding affinity
Target: T1, human CD81 mutant V169A (human, UniProt P60033 1-236, limits assumed)
T1 construct: as m30; not shown: C-terminal V5 and 6xHis tags
T1 sequence: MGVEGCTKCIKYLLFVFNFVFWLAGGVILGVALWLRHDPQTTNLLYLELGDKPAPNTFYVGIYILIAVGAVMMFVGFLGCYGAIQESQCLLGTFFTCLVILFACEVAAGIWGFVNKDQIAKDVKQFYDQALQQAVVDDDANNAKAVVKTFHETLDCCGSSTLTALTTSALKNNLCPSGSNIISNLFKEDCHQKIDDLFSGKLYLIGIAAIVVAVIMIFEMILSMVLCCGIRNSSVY
Test: ELISA

Consider the reported relative binding affinity for these binders:
1) 002-A07 S115A (antibody, human IgG4 S228P, lambda, V domains shown, IgG4 S228P; glycosylation site mutant of 002-A07 VL) VH: EVQLLESGGGLVQPGGSLRLSCAASGFTFSSNYMSWVRQAPGKGLEWVSYISSSSTYTDYADSVKGRFTISRDNSKNTLYLQMNSLRAEDTAVYYCARYSYGRDNFDYWGQGTLVTVSS VL: QSVLTQPPSASGTPGQRVTISCTGSTSNIGAGYDTHWYQQLPGTAPKLLIYGNSNRPSGVPDRFSGSKSGTSASLAISGLRSEDEADYYCQSYDTNLAVWVFGGGTKLTVLG :: < 20%
2) 002-A07 N113S (antibody, human IgG4 S228P, lambda, V domains shown, IgG4 S228P; glycosylation site mutant of 002-A07 VL) VH: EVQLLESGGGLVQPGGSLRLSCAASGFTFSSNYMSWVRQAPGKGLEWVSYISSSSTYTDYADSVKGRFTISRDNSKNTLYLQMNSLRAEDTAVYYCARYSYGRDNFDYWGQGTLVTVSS VL: QSVLTQPPSASGTPGQRVTISCTGSTSNIGAGYDTHWYQQLPGTAPKLLIYGNSNRPSGVPDRFSGSKSGTSASLAISGLRSEDEADYYCQSYDTSLSVWVFGGGTKLTVLG :: < 20%

# next binder below
Which value of relative binding affinity has been reported for 002-C09 (antibody, human IgG4 S228P, lambda, V domains shown, IgG4 S228P) VH: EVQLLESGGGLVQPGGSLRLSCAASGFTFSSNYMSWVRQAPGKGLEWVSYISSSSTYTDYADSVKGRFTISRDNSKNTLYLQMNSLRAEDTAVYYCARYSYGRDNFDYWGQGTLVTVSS VL: QSVLTQPASASGTPGQRVTISCTGSTSNIGAGYGTHWYQRLPGTAPKLLIYGNSNRPSGVPDRFSGSKSGTSASLAISGLRSEDEADYYCQSYDTNLSGWVFGGGTKLTVLG in the records?
< 20%
